- Test system: MDA-N
- PROTOCOL_DESCRIPTION: NCI tumour cell line growth inhibition, 48 h
MEASUREMENT_NAME: TGI

Which measured TGI value corresponds to CN(C)CCCNc1c2ccccc2nc2cccc([N+](=O)[O-])c12 ?
0.00246 µM

Which measured TGI value corresponds to CC1(C)CN(c2ccccc2)C(=O)C1OC(=O)[C@@]1(C)C[C@@H]2C=C[C@H]1C2 (stereo not given in full) ?
41.6 µM

Which measured TGI value corresponds to COC(=O)c1ccc(CCc2cc(O)ccc2O)cc1 ?
20.5 µM

Which measured TGI value corresponds to O=C1CSC2=NCC3(NN12)c1ccccc1-c1ccccc13 ?
> 10 µM

Which measured TGI value corresponds to CCOP(=O)(OCC)/C(=C\N1C(=O)CC(=O)NC1=S)C(=O)OC ?
> 100 µM

Which measured TGI value corresponds to Cc1cc(Nc2ccc(N=Nc3ccc(O)c4ncccc34)cc2)nc(C)n1 ?
42.8 µM

Which measured TGI value corresponds to COc1cc(/C=C2\N=C(c3ccccc3)N(/N=C3\C(=O)Nc4ccccc43)C2=O)cc(OC)c1OC ?
> 100 µM

Which measured TGI value corresponds to O=C1CCC2(CC1CCSc1ccccc1)OCCO2 (stereo not given) ?
> 100 µM

Which measured TGI value corresponds to CC(NC(=O)OCc1ccccc1)NC(=O)C(CC(=O)OC(C)(C)C)NC(=O)OC(C)(C)C (stereo not given) ?
> 100 µM

Which measured TGI value corresponds to COc1c(OC)c(O)c2c(=O)c(OC)c(-c3ccc4c(c3)OCO4)oc2c1O ?
> 100 µM

====

- System: MALME-3M melanoma
- PROTOCOL_DESCRIPTION: NCI tumour cell line growth inhibition, 48 h
Exercise: for every item that follows, state its recorded TGI.

Which measured TGI value corresponds to Cc1cc(=O)n2nc(CSc3nnc(N)s3)sc2n1 ?
> 100 µM

Which measured TGI value corresponds to O=C1CCC2(CC1CCSc1ccccc1)OCCO2 (stereo not given) ?
> 100 µM

Which measured TGI value corresponds to O=C(Cn1c(=O)c(-c2ccccc2)nc2ccccc21)c1cccnc1 ?
> 100 µM

Which measured TGI value corresponds to CC(=O)OCc1cc(=O)n(C)c2c3c4c(cc12)c(C)cc(=O)n4CO3 ?
2.72 µM

Which measured TGI value corresponds to CN(C)CCOC(=O)c1ccc(N)cc1 ?
> 100 µM

Which measured TGI value corresponds to CC(C)[C@H]1NC(=O)[C@H]2N=C(O[C@@H]2C)[C@@H]2CCCN2C(=O)[C@H](Cc2ccccc2)NC(=O)[C@@H]2CSC(=N2)[C@@H](Cc2ccccc2)NC(=O)[C@@H]2CSC1=N2 ?
> 100 µM

Which measured TGI value corresponds to CCc1ccc(-c2ccc(=O)n(-c3ccc(S(N)(=O)=O)cc3)n2)cc1 ?
23.1 µM

Which measured TGI value corresponds to COCN1CCN=c2c1c1c3c(c4ccccc4n23)CCC1 ?
> 100 µM

Which measured TGI value corresponds to OCCCCC#Cc1ccccc1C#Cc1ccccc1F ?
46.9 µM

Which measured TGI value corresponds to O=[N+]([O-])c1cc(O)c(O)cc1-c1cn2ccsc2n1 ?
> 100 µM

====

- Tested on: 786-0 renal
- PROTOCOL_DESCRIPTION: NCI tumour cell line growth inhibition, 48 h; in the data active = GI50 below about 0.43 µM; inactive = the rest
Mark one answer only. Choices: active, inactive

Per the assay record, what outcome was assigned to C[C@@H]1COCCN1c1nc(-c2cnc(N)cc2C(F)F)nc(N2[C@H](C)COC[C@@H]2C)n1 ?
active

Per the assay record, what outcome was assigned to COc1ccc(C2=CC(c3cc(OC)c(OC)c(OC)c3)NC(=O)N2)cc1OC (stereo not given) ?
inactive

Per the assay record, what outcome was assigned to OCc1cccc(-c2ccc3ncc(-c4nc(NC5CC5)ncc4F)n3c2)c1 ?
active

Per the assay record, what outcome was assigned to CCCCCCCCCCCCCCCC(=O)OCC1OC(n2cnc3c(=S)nc(N)[nH]c32)C(OC(=O)CCCCCCCCCCCCCCC)C1OC(=O)CCCCCCCCCCCCCCC (stereo not given) ?
inactive

Per the assay record, what outcome was assigned to CN(C)C(=S)NN=C(c1ccccn1)c1ccccn1 ?
active
